Recorded values, source ChEMBL document CHEMBL1961873.

Kindly state inhibition for each of the entries shown.
Target Entity: Ribosomal protein S6 kinase alpha-6 (Homo sapiens) (UniProt Q9UK32);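 further: each value is a mean inhibition of RSK4 from a GSK PKIS panel screen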
Sequence (Q9UK32 whole entry): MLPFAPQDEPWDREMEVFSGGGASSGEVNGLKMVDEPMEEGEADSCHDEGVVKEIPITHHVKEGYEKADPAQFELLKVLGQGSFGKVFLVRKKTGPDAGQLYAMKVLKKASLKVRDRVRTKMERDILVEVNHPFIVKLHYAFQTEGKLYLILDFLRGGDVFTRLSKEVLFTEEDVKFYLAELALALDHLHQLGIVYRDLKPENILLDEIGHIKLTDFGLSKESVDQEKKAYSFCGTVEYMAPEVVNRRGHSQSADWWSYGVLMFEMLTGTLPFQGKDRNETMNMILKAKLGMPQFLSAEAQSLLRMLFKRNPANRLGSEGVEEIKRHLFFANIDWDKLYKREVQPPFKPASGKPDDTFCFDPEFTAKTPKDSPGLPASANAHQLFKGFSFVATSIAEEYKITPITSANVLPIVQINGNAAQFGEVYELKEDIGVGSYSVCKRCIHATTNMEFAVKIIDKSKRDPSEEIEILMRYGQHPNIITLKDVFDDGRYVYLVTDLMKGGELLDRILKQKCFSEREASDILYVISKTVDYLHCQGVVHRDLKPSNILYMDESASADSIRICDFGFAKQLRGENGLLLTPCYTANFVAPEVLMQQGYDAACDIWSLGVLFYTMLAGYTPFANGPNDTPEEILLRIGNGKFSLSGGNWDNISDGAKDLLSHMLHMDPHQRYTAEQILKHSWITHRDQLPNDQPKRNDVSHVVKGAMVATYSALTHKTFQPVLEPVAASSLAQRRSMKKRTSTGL
Test Conditions: at 1 µM
Please provide the amount together with its unit, number first.

Provide reported inhibition for each item, in the same order as listed.
1. O=C1Nc2ccccc2/C1=C1\CCc2cc(O)ccc21
2. CC(C)c1ccc(-c2cc(-c3c[nH]nc3-c3ccccn3)ccn2)cc1

Resp:
1: 37.6%; 2: -0.11%

* * *

Target Entity: Fibroblast growth factor receptor 4 (Homo sapiens) (UniProt P22455);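 further: reported figure is the averaged percent inhibition of FGFR4, from the GSK PKIS kinase screening panel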
Sequence (P22455 22-802 limits assumed): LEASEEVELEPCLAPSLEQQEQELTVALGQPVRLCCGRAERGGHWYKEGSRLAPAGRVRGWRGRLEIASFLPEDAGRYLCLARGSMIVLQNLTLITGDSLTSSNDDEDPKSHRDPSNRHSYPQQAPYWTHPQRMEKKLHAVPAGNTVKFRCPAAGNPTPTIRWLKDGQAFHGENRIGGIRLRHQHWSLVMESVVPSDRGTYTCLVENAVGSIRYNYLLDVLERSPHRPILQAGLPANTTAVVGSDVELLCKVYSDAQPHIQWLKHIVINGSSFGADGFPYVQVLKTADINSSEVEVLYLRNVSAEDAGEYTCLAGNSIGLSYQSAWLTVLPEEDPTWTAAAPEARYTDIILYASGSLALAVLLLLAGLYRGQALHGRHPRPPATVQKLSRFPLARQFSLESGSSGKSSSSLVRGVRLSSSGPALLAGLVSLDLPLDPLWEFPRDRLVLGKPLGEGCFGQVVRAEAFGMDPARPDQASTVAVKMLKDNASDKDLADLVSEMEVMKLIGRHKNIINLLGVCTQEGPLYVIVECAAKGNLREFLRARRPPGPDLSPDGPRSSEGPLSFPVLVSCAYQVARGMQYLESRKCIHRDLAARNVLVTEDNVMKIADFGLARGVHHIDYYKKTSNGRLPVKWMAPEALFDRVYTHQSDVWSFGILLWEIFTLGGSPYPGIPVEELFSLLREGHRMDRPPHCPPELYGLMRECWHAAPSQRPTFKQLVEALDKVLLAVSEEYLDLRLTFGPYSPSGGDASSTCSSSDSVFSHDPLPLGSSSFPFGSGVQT
Test Conditions: at 1 µM
Please respond with reported inhibition for every item in the list.
Numbers only, in %.

Observe how each entry below is paired with its result.
[
  {
    "Molecule Smiles": "COc1cccc(Nc2nccc(-c3cnn4ncccc34)n2)c1",
    "inhibition (%)": 1.33
  },
  {
    "Molecule Smiles": "CC(C)c1ccc(-c2cc(-c3c[nH]nc3-c3ccccn3)ccn2)cc1",
    "inhibition (%)": 0.16
  },
  {
    "Molecule Smiles": "c1cnn2ncc(-c3ccnc(NCCCN4CCOCC4)n3)c2c1",
    "inhibition (%)": 2.53
  },
  {
    "Molecule Smiles": "Cc1c2ccc(N(C)c3ccnc(Nc4cccc(S(N)(=O)=O)c4)n3)cc2nn1C",
    "inhibition (%)": 26.4
  },
  {
    "Molecule Smiles": "Fc1cccc(COc2ccc(Nc3ncncc3C#Cc3ccccc3)cc2Cl)c1",
    "inhibition (%)": 0.25
  }
]

Please go through the list and note inhibition for each compound.
1. N#Cc1ccc2c(-c3ccnc(NC4CC4)n3)c(-c3ccc(F)cc3)nn2c1
2. Cc1cc(O)cc(C)c1/C=C/c1cncc(C(N)=O)c1
3. CC1(C)CC(n2cnc(-c3ccc(F)cc3)c2-c2ccnc(N)n2)CC(C)(C)N1
4. CCN1CCC(C(=O)Nc2n[nH]c3nnc(-c4cccc(F)c4F)cc23)CC1
5. COC(=O)Nc1nc2ccc(Oc3ccc(NC(=O)Nc4cc(C(F)(F)F)ccc4F)cc3)cc2s1

Resp:
1. -0.59
2. 0.95
3. 2.01
4. 1.49
5. 3.25

Value sought for every listed compound: inhibition.
1. Cn1c(-c2nonc2N)nc2cnccc21
2. NS(=O)(=O)c1ccc(N/N=C2\C(=O)Nc3ccc(C(=O)NCc4ccncc4)cc32)cc1
3. N#Cc1cccc(Nc2ncc(-c3ccccc3)o2)c1
4. NC(=O)c1ccc2c(-c3ccnc(NCCCO)n3)c(-c3ccc(F)cc3)nn2c1
5. NS(=O)(=O)c1ccc(N/N=C2\C(=O)Nc3cccc(CCc4ccncc4)c32)cc1
6. CCCNc1cccc(-n2ncc3c(N/N=C/c4ccncc4)ncnc32)c1
7. COc1c(C(N)=O)cc(-c2ccc(Cl)cc2)cc1-c1ccc(S(N)(=O)=O)cc1
8. Cc1ccc(-c2cc3c(NC(=O)C4CC4)ncnc3o2)cc1

Resp:
1. 1.93
2. 2.18
3. 3.3
4. 1.22
5. 1.66
6. 3.38
7. 2.25
8. 1.04
